# Test system: AP1, P53, Nrf2, and NF-κB
# CONDITION_PARAMETERS: human
Structures can show the parent of a compound that is named as a salt.
MEASURED_METRIC: Toxic (natural products exceeding Score 3, Venn diagram list Fig. 3c)

Would you please look over these solved cases?
{"MOLECULE": "CC(=O)O[C@H]1C[C@]2(O)[C@@H]3CC[C@@H]4C[C@@H](O)CC[C@]4(C)[C@H]3CC[C@]2(C)[C@H]1c1ccc(=O)oc1", "RESULT": "S9- only"}
{"MOLECULE": "CC(C)=CC[C@H](O)C1=CC(=O)c2c(O)ccc(O)c2C1=O", "RESULT": "S9- only"}
{"MOLECULE": "CC[C@]1(O)C[C@H]2CN(CCc3c([nH]c4ccccc34)[C@@](C(=O)OC)(c3cc4c(cc3OC)N(C=O)[C@H]3[C@@](O)(C(=O)OC)[C@H](OC(C)=O)[C@]5(CC)C=CCN6CC[C@]43[C@@H]65)C2)C1 [Vincristine, reference compound]", "RESULT": "S9+ only"}
{"MOLECULE": "CC[C@]1(O)C[C@@H]2CN(CCc3c([nH]c4ccccc34)[C@@](C(=O)OC)(c3cc4c(cc3OC)N(C)[C@H]3[C@@](O)(C(=O)OC)[C@H](OC(C)=O)[C@]5(CC)C=CCN6CC[C@]43[C@@H]65)C2)C1 [Vinblastine sulfate, reference compound]", "RESULT": "S9+ only"}
{"MOLECULE": "CC1=C(O)C(=O)C=C2C1=CC=C1[C@@]2(C)CC[C@@]2(C)[C@@H]3C[C@](C)(C(=O)O)CC[C@]3(C)CC[C@]12C", "RESULT": "S9+ only"}

Proceeding to the next molecule to report its Toxic (natural products exceeding Score 3, Venn diagram list Fig. 3c).
The reported value for C[C@]12CC[C@H](O)C[C@H]1CC[C@@H]1[C@@H]2CC[C@]2(C)[C@@H](c3ccc(=O)oc3)CC[C@]12O in terms of Toxic (natural products exceeding Score 3, Venn diagram list Fig. 3c) is S9+ only
